test system: Staph. aureus 10649; assay: Acute mouse protection, in vivo efficacy vs. Staph. aureus 10649 (100-1000 LD50 s); design: species or system Staph. aureus (infected mouse); details: Staphylococcus aureus, 10649, sc, Acute Mouse Protection; subcutaneous; read-out: ED50 Subcutaneous
Structures can show the parent of a compound that is named as a salt.
The molecules listed here are annotated with their ED50.
Please format your answer as a value with the unit trailing.

CC[C@H]1OC(=O)[C@H](C)[C@@H](O[C@H]2C[C@@](C)(OC)[C@@H](OC(C)=O)[C@H](C)O2)[C@H](C)[C@@H](O[C@@H]2O[C@H](C)C[C@H](N(C)C)[C@H]2O)[C@@]2(C)C[C@@H](C)C(O)(O2)[C@H](C)[C@H]2OC(=O)O[C@@]21C [Compound 4, HCl salt] | 27 mg/kg
CC[C@H]1OC(=O)[C@H](C)[C@@H](O[C@H]2C[C@@](C)(OC)[C@@H](O)[C@H](C)O2)[C@H](C)[C@@H](O[C@@H]2O[C@H](C)C[C@H](N(C)C)[C@H]2O)[C@@]2(C)C[C@@H](C)C(O)(O2)[C@H](C)[C@H]2OC(=O)O[C@@]21C [Compound 2] | 15 mg/kg
CC[C@H]1OC(=O)[C@H](C)[C@@H](O[C@H]2C[C@@](C)(OC)[C@@H](OC(C)=O)[C@H](C)O2)[C@H](C)[C@@H](O[C@@H]2O[C@H](C)C[C@H](N(C)C)[C@H]2O)[C@](C)(O)C[C@@H](C)C(=O)[C@H](C)[C@@H](O)[C@]1(C)O [Compound 3, 4"-acetylerythromycin A] | 30 mg/kg

For the next question, use this molecule.
Qu. Please give the measured ED50 for this molecule: CC[C@H]1OC(=O)[C@H](C)[C@@H](O[C@H]2C[C@@](C)(OC)[C@@H](O)[C@H](C)O2)[C@H](C)[C@@H](O[C@@H]2O[C@H](C)C[C@H](N(C)C)[C@H]2O)[C@](C)(O)C[C@@H](C)C(=O)[C@H](C)[C@@H](O)[C@]1(C)O [Compound 1, erythromycin A]
Ans. 6 mg/kg

Values from patent US4686207A
